Tested on: HS 578T breast
Protocol summary: NCI tumour cell line growth inhibition, 48 h
For each of the molecules below, state its TGI.
Entry rule: numbers only, all in µM.

Which TGI reading was recorded for the molecule CC(C)(C)c1ccc(/C=N/NC(=O)CSCC(=O)N/N=C/c2ccc(C(C)(C)C)cc2)cc1 ?
7.61

And then CCS(=O)(=O)Nc1cccc(Nc2c3cccc(C)c3nc3c(C)cccc23)c1OC , what is it?
44.8

----------
Hi there, I'd appreciate the recorded TGI for every entry that follows.
Tested on: 786-0 renal
Protocol summary: NCI tumour cell line growth inhibition, 48 h

Report TGI for OCC1OC(n2cnc3c(Cl)nc(Cl)cc32)C(O)C1O (stereo not given) please.
> 100 µM

Thanks! And O=C(COC(=O)c1cccc2c(=O)c3ccccc3[nH]c12)Nc1ccccc1 ?
> 100 µM

What about CC1(C)CCC(C)(C)c2c1ccc(O)c2Cc1c(O)ccc2c1C(C)(C)CCC2(C)C ?
3.61 µM

And the next one, CN(C)/C=N/NC(=O)/C(C#N)=C/N(C)C ?
> 100 µM

Field entry: COc1ccc2nc3ccccc3c(NCCCN(C)CCCl)c2c1
1.07 µM

Same again, this time with OC1C2CCC1C1C3C=CC(C3)C21 (stereo not given)
> 100 µM

Do the same for NC(N)=NS(=O)(=O)c1ccc(Nc2c3ccccc3nc3c(C(=O)Nc4ccc(S(N)(=O)=O)cc4)ccc(Cl)c23)cc1 please
> 100 µM

Now the same for COC1O[C@H]2[C@H]3[C@@H]1[C@@H](OS(=O)(=O)c1ccc(C)cc1)C(=O)N3C[C@H]2O (stereo not given in full)
> 100 µM

Follow-up entry: COc1cnc2c(c1)C(=O)c1c-2n(CCCNC(C)C)c(=O)c2cc(F)ccc12
0.482 µM

Input CC(=O)c1cccc(NC(=O)C(=O)Nn2c(N)nnc2N)c1
> 100 µM

What would you report for CN(CC(=O)O)c1ncc2c(n1)-c1ccccc1OC2 ?
> 100 µM

One more molecule: CCCCCCCCCCCCOC1C(C(CC(=O)N2CCN(c3cccc(C(F)(F)F)c3)CC2)NS(=O)(=O)c2cc(Cl)cc(Cl)c2)OC2OC(C)(C)OC21 (stereo not given)
> 100 µM

What do you have for O=c1c2ccccc2c2ccccc2c(=O)n1Cc1ccc2c(c1)OCO2 ?
> 100 µM

Same again, this time with CC1OC(OC2C(CO)OC(O[C@H]3CC[C@@]4(C)C(=CC[C@H]5[C@@H]6C[C@@H]7O[C@]8(CC[C@@H](C)CN8)[C@@H](C)[C@@H]7[C@@]6(C)CC[C@@H]54)C3)C(O)C2O)C(O)C(O)C1O (stereo not given in full)
> 100 µM

Same read-out for Clc1cc2n[se]nc2cc1Cl ?
> 100 µM

Entry N#CCC(=O)N/N=C(\C(=O)Nc1ccc(Cl)c(Cl)c1)C1CN(c2ccccc2)N=C1N (stereo not given) please
> 100 µM

Now this one: NCCC(=O)N[C@@H](Cc1cc(O)c(O)c(SCC(NC(=O)CC[C@H](N)C(=O)O)C(=O)NCC(=O)O)c1)C(=O)O (stereo not given in full)
> 50 µM

Now this one: O=S(O)CCCSSc1ccccc1
> 100 µM

Now the same for O[C@@H]1C[C@H]2N3CC[C@@]2(c2cc4c(cc2C3)OCO4)[C@H]2O[C@@H]12
> 100 µM

Then O=c1[nH]c(=O)n(C2CC(O)C(CO)O2)cc1OCC1CCCCC1 (stereo not given) ?
> 100 µM

// provenance: PubChem BioAssay (NCI)
